Test system: 3T3-L1
Experiment: Inhibition of differentiation of mouse 3T3L1 cells assessed as lipid accumulation at 50 uM after 8 days by using Oil Red O staining by spectrophotometry relative to control
Assay type: functional
Would you mind telling me the reported Lipid accumulation (% of control) of each entry?
One number for each entry, in %.

In the examples that follow, each entry is paired with its recorded Lipid accumulation (% of control).
> print(dat)
                                   molecule                     endpoint.label  measured
1  Oc1ccc(CC[C@@H](O)C[C@H](O)CCc2ccc(O)cc2)cc1 [(+)-HANNOKINOL]  Lipid accumulation (% of control)      61.2
2  Oc1ccc(CCCC[C@@H](O)CCc2ccc(O)c(O)c2)cc1O  Lipid accumulation (% of control)      86.4
3  O=C(/C=C/CCc1ccc(O)c(O)c1)/C=C/c1ccc(O)c(O)c1  Lipid accumulation (% of control)      66.5

As a next step, examine the molecule that follows.
Ask: What value of Lipid accumulation (% of control) has been reported for the following molecule? O=C(O[C@@H]1Cc2c(O)cc(O)cc2O[C@@H]1c1cc(O)c(O)c(O)c1)c1cc(O)c(O)c(O)c1 [EPIGALOCATECHIN GALLATE]
Result: 81.9
